Measured on: human CB2R (Homo sapiens)
Construct: host or cells: CHO cells
Assay text: CB2R mediated modulation of cAMP synthesis
Assay type: cell-based
pEC50: −log10 of the molar value.

[
  {
    "Smiles str": "CC(C)(C)c1cc(NC(=O)N2CCCN(c3ncc(Cl)cc3Cl)CC2)no1",
    "pEC50": 7.36
  },
  {
    "Smiles str": "O=C(c1ccc(Cl)cc1)N1CCCN(c2nc3ccc(Cl)cc3s2)CC1",
    "pEC50": 7.52
  },
  {
    "Smiles str": "Cc1nc(NC(=O)N2CCCN(c3ncc(C(F)(F)F)cc3Cl)CC2)sc1C(C)(C)C",
    "pEC50": 9.03
  },
  {
    "Smiles str": "CC(C)(C)c1ccc2oc(N3CCCN(C(=O)c4ccc(Cl)cc4)CC3)nc2c1",
    "pEC50": 9.85
  },
  {
    "Smiles str": "CCc1cnc(N2CCCN(C(=O)Nc3cc(C(C)(C)C)on3)CC2)nc1",
    "pEC50": 8.22
  },
  {
    "Smiles str": "O=C(C1CCOCC1)N1CCCN(c2nc3cc(C(F)(F)F)ccc3s2)CC1",
    "pEC50": 7.46
  }
]

* * *

Measured on: human CB2R (Homo sapiens, UniProt P34972)
Construct: host or cells: CHO cells
Sequence (P34972 whole entry): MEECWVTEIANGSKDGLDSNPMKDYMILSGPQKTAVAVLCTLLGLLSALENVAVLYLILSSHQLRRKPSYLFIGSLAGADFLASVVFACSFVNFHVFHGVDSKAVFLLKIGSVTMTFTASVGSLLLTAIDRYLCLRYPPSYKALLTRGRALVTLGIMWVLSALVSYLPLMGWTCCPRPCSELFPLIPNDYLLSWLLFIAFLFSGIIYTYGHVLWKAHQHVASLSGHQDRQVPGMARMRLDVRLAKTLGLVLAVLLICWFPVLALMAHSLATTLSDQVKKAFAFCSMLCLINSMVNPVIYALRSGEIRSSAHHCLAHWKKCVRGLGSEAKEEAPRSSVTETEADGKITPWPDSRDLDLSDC
Assay text: CB2R mediated modulation of cAMP synthesis
Format: cell-based
Assay setup: read-out: CB2 CAMP @EC50
Entries and their measured EC50 follow.
Observed property: EC50 (nM)

[
  {
    "Compound": "Cc1csc2ncnc(N3CCCN(C(=O)N4CCOCC4)CC3)c12",
    "Observed property": "EC50",
    "Measured": 45.2
  },
  {
    "Compound": "O=C(N1CCCN(c2nc3ccccc3[nH]2)CC1)N1CCS(=O)(=O)CC1",
    "Observed property": "EC50",
    "Measured": 327
  },
  {
    "Compound": "O=C(C1CCOCC1)N1CCCN(c2nc3cc(C(F)(F)F)ccc3o2)CC1",
    "Observed property": "EC50",
    "Measured": 43
  },
  {
    "Compound": "O=C(C1CCOCC1)N1CCCN(c2nc(-c3ccccc3)cs2)CC1",
    "Observed property": "EC50",
    "Measured": 217
  },
  {
    "Compound": "N#Cc1cnc(N2CCCN(C(=O)C3CCOCC3)CC2)s1",
    "Observed property": "EC50",
    "Measured": 40
  },
  {
    "Compound": "O=C(C1CCC(O)CC1)N1CCCN(c2nc3cc(C(F)(F)F)ccc3o2)CC1 (stereo not shown)",
    "Observed property": "EC50",
    "Measured": 19
  },
  {
    "Compound": "Cc1ccc(Cl)c2sc(N3CCCN(C(=O)N4CCOCC4)CC3)nc12",
    "Observed property": "EC50",
    "Measured": 2
  },
  {
    "Compound": "Cc1ccc2nc(N3CCCN(C(=O)C4CCOCC4)CC3)sc2c1",
    "Observed property": "EC50",
    "Measured": 110
  },
  {
    "Compound": "CC(C)(C)c1ccc2oc(N3CCCN(C(=O)C4CCC(F)(F)CC4)CC3)nc2c1",
    "Observed property": "EC50",
    "Measured": 0.017
  },
  {
    "Compound": "CC(C)(C)SCCNC(=O)N1CCCN(c2ncc(C(F)(F)F)cc2Cl)CC1",
    "Observed property": "EC50",
    "Measured": 21
  },
  {
    "Compound": "CCC(C)c1cc(NC(=O)N2CCCN(c3ncc(C(F)(F)F)cc3Cl)CC2)n(C)n1 (stereo not shown)",
    "Observed property": "EC50",
    "Measured": 14
  },
  {
    "Compound": "Cc1ccc(Cl)c2sc(N3CCCN(C(=O)C4CCOCC4)CC3)nc12",
    "Observed property": "EC50",
    "Measured": 114
  },
  {
    "Compound": "CC(C)(C)c1cc(NC(=O)N2CCCN(c3nccc(C(F)(F)F)n3)CC2)no1",
    "Observed property": "EC50",
    "Measured": 333
  },
  {
    "Compound": "Cc1c(Cl)ccc2sc(N3CCCN(C(=O)N4CCOCC4)CC3)nc12",
    "Observed property": "EC50",
    "Measured": 204
  },
  {
    "Compound": "Cc1ccnc(N2CCCN(C(=O)Nc3cc(C(C)(C)C)on3)CC2)n1",
    "Observed property": "EC50",
    "Measured": 344
  },
  {
    "Compound": "O=C(c1ccc(Cl)cc1)N1CCCN(c2nc(-c3ccccc3)ns2)CC1",
    "Observed property": "EC50",
    "Measured": 5
  },
  {
    "Compound": "O=C(C1CCOCC1)N1CCCN(c2nc3cc(-c4ccccc4)ccc3o2)CC1",
    "Observed property": "EC50",
    "Measured": 77
  },
  {
    "Compound": "Cc1c(Cl)ccc2sc(N3CCCN(C(=O)C4CCOCC4)CC3)nc12",
    "Observed property": "EC50",
    "Measured": 3
  },
  {
    "Compound": "Cc1cc(C)c2sc(N3CCCN(C(=O)C4CCOCC4)CC3)nc2c1",
    "Observed property": "EC50",
    "Measured": 53
  }
]

Cited source for all entries: patent US20100261708A1
